All values here come from patent US11884662B2.

- System: Human peripheral blood mononuclear cells (PBMC)
- test: Cytokine Induction in Human Cells
- Type: cell-based
- protocolConditions: 21-24 hours culture, lowest concentration inducing at least 2× negative control, TNF-alpha by multiplex bead assay
quantity: MEC to Induce Cytokine TNF-alpha (µM)

{"columns": ["compound", "unitText", "valueQualifier", "obsValue"],
 "data": [
  ["CC[C@@H](n1cnc2c(N)nc3ccccc3c21)C1(O)CCCC1", "µM", "=", 0.37],
  ["C[C@@H](n1cnc2c(N)nc3ccccc3c21)C1(O)CCCC1", "µM", "=", 3.3],
  ["CC[C@@H](n1cnc2c(N)nc3ccccc3c21)C1(O)CCCCC1", "µM", "=", 1.2],
  ["C[C@H](n1cnc2c(N)nc3ccccc3c21)C1(O)CCCC1", "µM", ">", 30],
  ["CC[C@H](n1cnc2c(N)nc3ccccc3c21)C1(O)CCCC1", "µM", ">", 30],
  ["Nc1nc2ccccc2c2c1ncn2CC1(O)CCCC1 [Comparative Example, reference compound]", "µM", "=", 10],
  ["C[C@@H](n1cnc2c(N)nc3ccccc3c21)C1(O)CC=CC1", "µM", "=", 3.3]
]}
